target: T1, CD47 on the surface of human red blood cells (human, UniProt Q08722 19-323); assay: FACS, hRBC, 500 nM
T1 construct: whole, on cells; Same protein as m3, on red blood cells; also called hRBC; RBC
experimentalEndpoint: FACS (MFI)
Just the number in MFI, nothing appended.

binder	valueReported
h140Hm13/h140Lm3 (antibody, V domains shown) VH: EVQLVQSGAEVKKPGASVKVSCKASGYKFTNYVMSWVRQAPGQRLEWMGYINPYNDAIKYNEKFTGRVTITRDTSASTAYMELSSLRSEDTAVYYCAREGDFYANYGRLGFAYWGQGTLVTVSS VL: DIQMTQSPSSLSASVGDRVTITCRASQDITNYLNWYQQKPGKAPKLLIYYTSRLHSGVPSRFSGSGSGTDYTLTISSLQPEDIATYFCQQGDTFPRTFGGGTKVEIK	30600
h140Hm13/h140Lm2 (antibody, V domains shown) VH: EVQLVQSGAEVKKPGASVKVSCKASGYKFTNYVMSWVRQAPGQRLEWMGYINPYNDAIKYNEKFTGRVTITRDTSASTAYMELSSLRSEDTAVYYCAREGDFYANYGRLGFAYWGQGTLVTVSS VL: DIQMTQSPSSLSASVGDRVTITCRASQDITNYLNWYQQKPGKAPKLLLYYTSRLHSGVPSRFSGSGSGTDYTFTISSLQPEDIATYFCQQGDTFPRTFGGGTKVEIK	26100

// next entry
Query: For the binder shown here, h140Hm13/h140Lm7 (antibody, V domains shown) VH: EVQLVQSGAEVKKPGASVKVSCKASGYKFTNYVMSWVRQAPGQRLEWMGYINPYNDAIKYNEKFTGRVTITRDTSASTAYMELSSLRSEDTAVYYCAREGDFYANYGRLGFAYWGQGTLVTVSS VL: DIQMTQSPSSLSASVGDRVTITCRASQDITNYLNWYQQKPGKAPKLLIYYTSRLHSGVPSRFSGSGSGTDYTFTISSLQPEDIATYFCQQGDTRPRTFGGGTKVEIK , give the reported FACS (MFI).
Response: 16700
